Parameter: remaining activity at 10 µM. Scope: all listed entries.
Molecular target: Flt1 (Homo sapiens, UniProt P17948)
Construct: purchased Eurofins Pharma Discovery Services (KinaseProfiler; Cerep BioPrint panel)
Sequence (P17948 27-1338): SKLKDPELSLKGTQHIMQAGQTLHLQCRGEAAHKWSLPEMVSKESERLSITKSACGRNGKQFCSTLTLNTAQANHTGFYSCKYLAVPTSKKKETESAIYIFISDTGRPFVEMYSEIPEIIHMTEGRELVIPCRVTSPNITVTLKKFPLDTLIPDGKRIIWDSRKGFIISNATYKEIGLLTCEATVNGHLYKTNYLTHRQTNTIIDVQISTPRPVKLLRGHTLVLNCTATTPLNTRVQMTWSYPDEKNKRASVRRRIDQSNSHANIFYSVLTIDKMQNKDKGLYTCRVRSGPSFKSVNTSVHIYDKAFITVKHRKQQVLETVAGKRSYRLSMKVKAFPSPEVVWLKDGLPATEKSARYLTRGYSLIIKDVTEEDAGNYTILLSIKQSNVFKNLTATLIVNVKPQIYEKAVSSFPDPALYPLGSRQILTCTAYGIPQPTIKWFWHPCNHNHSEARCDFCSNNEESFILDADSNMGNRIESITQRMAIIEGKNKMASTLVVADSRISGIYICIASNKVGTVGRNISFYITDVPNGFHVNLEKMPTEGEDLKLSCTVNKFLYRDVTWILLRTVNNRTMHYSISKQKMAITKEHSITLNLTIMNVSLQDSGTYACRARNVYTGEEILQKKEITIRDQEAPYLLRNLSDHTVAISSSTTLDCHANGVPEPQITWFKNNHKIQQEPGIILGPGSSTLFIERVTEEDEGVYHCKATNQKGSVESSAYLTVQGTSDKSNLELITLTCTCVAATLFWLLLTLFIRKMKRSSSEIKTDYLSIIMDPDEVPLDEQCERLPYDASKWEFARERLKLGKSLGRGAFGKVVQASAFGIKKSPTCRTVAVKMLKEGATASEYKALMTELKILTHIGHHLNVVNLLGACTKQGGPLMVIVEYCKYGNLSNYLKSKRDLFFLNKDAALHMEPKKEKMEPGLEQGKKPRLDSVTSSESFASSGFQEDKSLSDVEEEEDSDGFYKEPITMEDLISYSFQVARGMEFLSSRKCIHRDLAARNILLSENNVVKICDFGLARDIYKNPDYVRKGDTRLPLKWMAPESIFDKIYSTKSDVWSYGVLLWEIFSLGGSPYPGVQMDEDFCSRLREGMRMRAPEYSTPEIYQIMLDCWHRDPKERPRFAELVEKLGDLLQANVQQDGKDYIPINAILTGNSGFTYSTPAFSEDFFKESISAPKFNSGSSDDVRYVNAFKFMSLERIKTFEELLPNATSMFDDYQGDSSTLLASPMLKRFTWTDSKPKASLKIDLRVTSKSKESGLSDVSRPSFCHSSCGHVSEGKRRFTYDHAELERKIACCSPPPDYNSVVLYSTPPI
Test: kinase selectivity panel
Format: biochemical
Details: read-out: percentage of control activity (POC), Flt1
Description: Kinase selectivity was evaluated at Eurofins Pharma Discovery Services using a selection of 125 representative kinases tested at a concentration of 10 μM in duplicate (S3 Table). IC50 values for selected activities were further characterized at 9 duplicate concentrations. DNA-PK activity was determined at the SelectScreen® Biochemical kinase Profiling Service of Thermo Fisher Scientific.
parameter: remaining activity at 10 µM (%)

INSERT INTO assay_data (molecule, obs_value) VALUES
  ('Cc1ccc(C(=O)NCC2CC2)cc1-c1ccc2c(c1)NC(=O)C21CCCC1', 128),
  ('Cn1cc(-c2cccc(-c3nc(C(=O)NC4C5CC6CC4CC(O)(C6)C5)c(N)nc3N)c2)cn1 (centres unmarked)', 84),
  ('CC(C)(C)N1CCC(c2cc(-c3ccc(F)cc3Cl)c3cc[n+]([O-])c(-c4c(Cl)cccc4Cl)c3n2)CC1', 114),
  ('CS(=O)(=O)N1CCN(c2ccc(Nc3ncc(C(N)=O)c(NC4CC4)n3)cc2)CC1', -3),
  ('COc1c(NC(=O)c2ccc(C)c(-c3nnc4c(NCC(C)(C)C)nccn34)c2)cc(C(C)(C)C)cc1NS(C)(=O)=O [compound 7, reference compound]', 80);

====

Target: Rsk2 (Homo sapiens, UniProt P51812)
Construct: purchased Eurofins Pharma Discovery Services (KinaseProfiler; Cerep BioPrint panel)
Sequence (P51812 whole entry): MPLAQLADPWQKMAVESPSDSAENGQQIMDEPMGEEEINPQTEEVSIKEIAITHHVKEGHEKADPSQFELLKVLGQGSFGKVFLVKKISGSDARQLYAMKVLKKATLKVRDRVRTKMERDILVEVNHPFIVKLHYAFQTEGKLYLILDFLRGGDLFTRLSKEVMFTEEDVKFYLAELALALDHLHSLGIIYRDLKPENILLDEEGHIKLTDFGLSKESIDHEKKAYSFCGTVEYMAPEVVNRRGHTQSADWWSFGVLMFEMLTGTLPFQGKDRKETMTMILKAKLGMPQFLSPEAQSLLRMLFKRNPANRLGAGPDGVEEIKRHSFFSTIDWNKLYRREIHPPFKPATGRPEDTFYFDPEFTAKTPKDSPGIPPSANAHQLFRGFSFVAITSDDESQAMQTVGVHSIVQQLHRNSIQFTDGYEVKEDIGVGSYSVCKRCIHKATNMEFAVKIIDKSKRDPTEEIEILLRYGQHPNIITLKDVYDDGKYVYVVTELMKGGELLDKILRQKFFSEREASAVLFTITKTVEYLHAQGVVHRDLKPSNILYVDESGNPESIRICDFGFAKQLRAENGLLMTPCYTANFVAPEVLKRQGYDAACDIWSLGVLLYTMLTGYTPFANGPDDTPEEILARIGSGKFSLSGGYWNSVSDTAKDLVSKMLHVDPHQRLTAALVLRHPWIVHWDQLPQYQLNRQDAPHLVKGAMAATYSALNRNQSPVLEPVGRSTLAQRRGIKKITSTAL
Assay: kinase selectivity panel
Format: biochemical
Details: read-out: percentage of control activity (POC), Rsk2
Protocol: Kinase selectivity was evaluated at Eurofins Pharma Discovery Services using a selection of 125 representative kinases tested at a concentration of 10 μM in duplicate (S3 Table). IC50 values for selected activities were further characterized at 9 duplicate concentrations. DNA-PK activity was determined at the SelectScreen® Biochemical kinase Profiling Service of Thermo Fisher Scientific.
parameter: remaining activity at 10 µM (%)

INSERT INTO assay_data (molecule, parameter, obs_value) VALUES
  ('CC(C)(C)N1CCC(c2cc(-c3ccc(F)cc3Cl)c3cc[n+]([O-])c(-c4c(Cl)cccc4Cl)c3n2)CC1', 'remaining activity at 10 µM', 101),
  ('Cn1cc(-c2cccc(-c3nc(C(=O)NC4C5CC6CC4CC(O)(C6)C5)c(N)nc3N)c2)cn1 (centres unmarked)', 'remaining activity at 10 µM', 88),
  ('CS(=O)(=O)N1CCN(c2ccc(Nc3ncc(C(N)=O)c(NC4CC4)n3)cc2)CC1', 'remaining activity at 10 µM', -2),
  ('Cc1ccc(C(=O)NCC2CC2)cc1-c1ccc2c(c1)NC(=O)C21CCCC1', 'remaining activity at 10 µM', 103),
  ('COc1c(NC(=O)c2ccc(C)c(-c3nnc4c(NCC(C)(C)C)nccn34)c2)cc(C(C)(C)C)cc1NS(C)(=O)=O [compound 7, reference compound]', 'remaining activity at 10 µM', 112);

====

Target: Abl (Homo sapiens, UniProt P00519)
Construct: purchased Eurofins Pharma Discovery Services (KinaseProfiler; Cerep BioPrint panel)
Sequence (P00519 whole entry): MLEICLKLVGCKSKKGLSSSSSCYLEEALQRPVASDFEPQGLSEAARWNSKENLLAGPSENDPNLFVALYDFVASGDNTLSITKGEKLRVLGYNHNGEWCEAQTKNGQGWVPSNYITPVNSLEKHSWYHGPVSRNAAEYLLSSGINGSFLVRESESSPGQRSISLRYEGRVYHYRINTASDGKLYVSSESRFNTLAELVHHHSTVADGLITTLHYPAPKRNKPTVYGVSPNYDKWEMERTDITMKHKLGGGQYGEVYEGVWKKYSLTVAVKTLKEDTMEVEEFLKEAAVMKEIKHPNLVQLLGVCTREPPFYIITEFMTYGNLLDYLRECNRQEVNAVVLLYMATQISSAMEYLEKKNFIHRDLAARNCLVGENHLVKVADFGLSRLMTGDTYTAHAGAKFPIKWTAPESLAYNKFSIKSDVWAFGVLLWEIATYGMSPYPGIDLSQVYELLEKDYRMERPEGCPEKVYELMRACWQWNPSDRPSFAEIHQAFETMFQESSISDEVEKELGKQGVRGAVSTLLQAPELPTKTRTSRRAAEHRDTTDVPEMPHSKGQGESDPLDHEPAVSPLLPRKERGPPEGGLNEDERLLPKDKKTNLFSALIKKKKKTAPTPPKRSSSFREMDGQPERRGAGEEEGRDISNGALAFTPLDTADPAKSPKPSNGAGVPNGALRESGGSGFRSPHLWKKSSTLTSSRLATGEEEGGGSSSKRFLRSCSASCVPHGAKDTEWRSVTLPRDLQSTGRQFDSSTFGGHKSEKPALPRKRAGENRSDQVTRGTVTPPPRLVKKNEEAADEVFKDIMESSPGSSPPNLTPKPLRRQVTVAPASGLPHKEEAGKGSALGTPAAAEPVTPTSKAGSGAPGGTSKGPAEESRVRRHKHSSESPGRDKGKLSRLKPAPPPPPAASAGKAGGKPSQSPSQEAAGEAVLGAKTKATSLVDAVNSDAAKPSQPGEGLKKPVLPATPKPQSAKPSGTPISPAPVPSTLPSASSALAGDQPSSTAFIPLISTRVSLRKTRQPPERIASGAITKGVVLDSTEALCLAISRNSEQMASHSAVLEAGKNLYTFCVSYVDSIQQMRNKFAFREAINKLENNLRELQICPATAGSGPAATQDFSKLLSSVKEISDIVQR
Experiment: kinase selectivity panel
Format: biochemical
Conditions: read-out: percentage of control activity (POC), Abl
Values of remaining activity at 10 µM strictly less than 70% map to true, and values of at least 70% map to false.

INSERT INTO assay_data (molecule, assigned_label) VALUES
  ('CS(=O)(=O)N1CCN(c2ccc(Nc3ncc(C(N)=O)c(NC4CC4)n3)cc2)CC1', 'true'),
  ('Cn1cc(-c2cccc(-c3nc(C(=O)NC4C5CC6CC4CC(O)(C6)C5)c(N)nc3N)c2)cn1 (centres unmarked)', 'true'),
  ('COc1c(NC(=O)c2ccc(C)c(-c3nnc4c(NCC(C)(C)C)nccn34)c2)cc(C(C)(C)C)cc1NS(C)(=O)=O [compound 7, reference compound]', 'true'),
  ('Cc1ccc(C(=O)NCC2CC2)cc1-c1ccc2c(c1)NC(=O)C21CCCC1', 'false'),
  ('CC(C)(C)N1CCC(c2cc(-c3ccc(F)cc3Cl)c3cc[n+]([O-])c(-c4c(Cl)cccc4Cl)c3n2)CC1', 'false');

All values here come from paper PMC5761851.
